test system: A431; experiment: whole-cell filipin (free cholesterol) integrated intensity, Z-score; higher = more cholesterol staining; conditions: compound concentration in added solution (µM; 5 µl added to 20 µl cells): 10; 18 h
Structures can show the parent of a compound that is named as a salt.
Below, each entry is listed alongside its reported whole-cell filipin (z-score).

| compound | whole-cell filipin (z-score) |
| --- | --- |
| COc1cc(OC)c(C(=O)CCCN2CCCC2)c(OC)c1 [Buflomedil hydrochloride] | -0.535 |
| C[C@@H](O)[C@H]1C(=O)N2C(C(=O)O)=C(S[C@@H]3CN[C@H](C(=O)N(C)C)C3)[C@H](C)[C@H]12 [Meropenem] | 0.0963 |
| Cc1c(Nc2ncccc2C(=O)O)cccc1C(F)(F)F [Flunixin meglumine] | -0.493 |
| CNCC(O)c1ccc(OC(=O)C(C)(C)C)c(OC(=O)C(C)(C)C)c1 (configuration not stated) [Dipivefrin hydrochloride] | 1.75 |
| CCC1(C)CC(=O)NC1=O (configuration not stated) [Ethosuximide] | -0.448 |
| CCCNCC(O)COc1ccccc1C(=O)CCc1ccccc1 (configuration not stated) [Propafenone hydrochloride] | 2.04 |
| C=CCOc1ccccc1OCC(O)CNC(C)C (configuration not stated) [Oxprenolol hydrochloride] | 0.289 |
